The following compounds each carry a recorded IC50 for human GPR40 protein (Homo sapiens, UniProt O14842).
readoutType: IC50 (nM)

Study these solved cases before continuing.
smilesString: C[C@@H]1Cc2cc(OCCCS(C)(=O)=O)ccc2-c2cc(COc3ccc4c(c3)OC[C@H]4CC(=O)O)ccc2O1
assayedTarget: human GPR40 protein (Homo sapiens, UniProt O14842)
Sequence (O14842 whole entry): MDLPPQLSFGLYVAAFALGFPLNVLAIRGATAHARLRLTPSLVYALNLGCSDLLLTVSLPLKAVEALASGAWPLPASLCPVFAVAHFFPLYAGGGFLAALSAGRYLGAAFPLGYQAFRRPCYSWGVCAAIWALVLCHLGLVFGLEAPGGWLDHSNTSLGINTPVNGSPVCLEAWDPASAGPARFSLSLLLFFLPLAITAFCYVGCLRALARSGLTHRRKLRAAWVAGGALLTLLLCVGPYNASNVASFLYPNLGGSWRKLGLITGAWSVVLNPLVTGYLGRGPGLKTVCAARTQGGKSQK
readoutUnit: nM
IC50: 84.4
//
smilesString: O=C(O)C[C@@H]1COc2cc(OCc3ccc4c(c3)-c3ccc(OCC5(O)CCS(=O)(=O)CC5)cc3CCC4)ccc21
assayedTarget: human GPR40 protein (Homo sapiens, UniProt O14842)
readoutUnit: nM
IC50: 160
//
smilesString: CC1(COc2ccc3c(c2)CCCc2ccc(COc4ccc5c(c4)OC[C@H]5CC(=O)O)cc2-3)CCS(=O)(=O)CC1
assayedTarget: human GPR40 protein (Homo sapiens, UniProt O14842)
readoutUnit: nM
IC50: 50.5
//
smilesString: Cc1cc(OCCCS(C)(=O)=O)cc2c1-c1cc(COc3ccc4c(c3)OC[C@H]4CC(=O)O)ccc1OCC2
assayedTarget: human GPR40 protein (Homo sapiens, UniProt O14842)
readoutUnit: nM
IC50: 17.7
//
smilesString: Cc1cc(OC2CCS(=O)(=O)CC2)cc2c1-c1cc(COc3ccc([C@H]4C[C@@H]4C(=O)O)cc3)ccc1CCC2
assayedTarget: human GPR40 protein (Homo sapiens, UniProt O14842)
readoutUnit: nM
IC50: 71

a = CC#C[C@@H](CC(=O)O)c1ccc(OCc2ccc3c(c2)-c2ccc(OCC4CCS(=O)(=O)CC4)cc2CCC3)cc1
b = CCS(=O)(=O)CCCOc1cc(C)c2c(c1)CCOc1ccc(COc3ccc([C@H]4C[C@@H]4C(=O)O)c(F)c3)cc1-2
Request: Looking at recorded values for IC50, does a or b come in lower? To answer, give the label that identifies your chosen option.
Result: a
